# credit: patent US10370727B2

- targetUnderTest: TrkC WT (Homo sapiens, UniProt Q16288, S70N)
- Sequence (Q16288 32-839 S70N): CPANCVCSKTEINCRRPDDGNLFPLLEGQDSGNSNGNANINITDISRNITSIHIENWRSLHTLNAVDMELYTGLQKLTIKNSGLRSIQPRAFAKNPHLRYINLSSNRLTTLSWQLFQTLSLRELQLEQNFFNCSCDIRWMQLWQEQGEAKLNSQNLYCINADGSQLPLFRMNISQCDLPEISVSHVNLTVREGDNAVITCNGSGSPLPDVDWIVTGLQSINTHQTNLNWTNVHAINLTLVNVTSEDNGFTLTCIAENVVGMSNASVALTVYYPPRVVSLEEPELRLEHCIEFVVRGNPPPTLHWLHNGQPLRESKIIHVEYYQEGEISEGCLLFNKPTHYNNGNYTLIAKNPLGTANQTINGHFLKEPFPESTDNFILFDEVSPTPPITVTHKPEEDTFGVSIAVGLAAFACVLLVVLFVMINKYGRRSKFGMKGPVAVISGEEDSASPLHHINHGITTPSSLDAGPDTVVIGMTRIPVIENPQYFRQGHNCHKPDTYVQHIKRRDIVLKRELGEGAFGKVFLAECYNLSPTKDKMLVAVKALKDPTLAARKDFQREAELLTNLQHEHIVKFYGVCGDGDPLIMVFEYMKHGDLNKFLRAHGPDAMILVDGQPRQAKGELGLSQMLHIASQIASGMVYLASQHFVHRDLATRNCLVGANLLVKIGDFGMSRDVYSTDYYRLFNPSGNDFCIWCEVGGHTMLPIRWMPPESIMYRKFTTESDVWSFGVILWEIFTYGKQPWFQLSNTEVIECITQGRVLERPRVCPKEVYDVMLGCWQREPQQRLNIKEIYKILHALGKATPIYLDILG
- assayInfo: Trk enzyme assay ([33P] incorporation into poly-EAY)
- Assay type: biochemical
- measurementSetup: wild-type TrkC enzyme; 22° C., 60 minutes
readoutType: IC50

Value of IC50 reported for the molecule O=C(Nc1cnn2ccc(N3CCC[C@@H]3c3cccc(F)c3)nc12)N1CC(O)C1 is 4.4 nM

Given item CN(C)C(=O)Nc1cnc2ccc(N3CCC[C@@H]3c3cc(F)ccc3F)nn12 , the value recorded as its IC50 is < 2.5 nM

Recorded result, O=C(Nc1cnc2ccc(N3CCC[C@@H]3c3cc(F)ccc3F)nn12)N1CC(O)C1 , IC50: < 2.5 nM

Form field IC50, entry O=C1NCCCOc2cccc(n2)[C@H]2CCCN2c2ccn3ncc1c3n2 : < 2.5 nM

====

- targetUnderTest: TrkA V573M (Homo sapiens, UniProt P04629, V573M)
- Sequence (P04629 33-796 V573M): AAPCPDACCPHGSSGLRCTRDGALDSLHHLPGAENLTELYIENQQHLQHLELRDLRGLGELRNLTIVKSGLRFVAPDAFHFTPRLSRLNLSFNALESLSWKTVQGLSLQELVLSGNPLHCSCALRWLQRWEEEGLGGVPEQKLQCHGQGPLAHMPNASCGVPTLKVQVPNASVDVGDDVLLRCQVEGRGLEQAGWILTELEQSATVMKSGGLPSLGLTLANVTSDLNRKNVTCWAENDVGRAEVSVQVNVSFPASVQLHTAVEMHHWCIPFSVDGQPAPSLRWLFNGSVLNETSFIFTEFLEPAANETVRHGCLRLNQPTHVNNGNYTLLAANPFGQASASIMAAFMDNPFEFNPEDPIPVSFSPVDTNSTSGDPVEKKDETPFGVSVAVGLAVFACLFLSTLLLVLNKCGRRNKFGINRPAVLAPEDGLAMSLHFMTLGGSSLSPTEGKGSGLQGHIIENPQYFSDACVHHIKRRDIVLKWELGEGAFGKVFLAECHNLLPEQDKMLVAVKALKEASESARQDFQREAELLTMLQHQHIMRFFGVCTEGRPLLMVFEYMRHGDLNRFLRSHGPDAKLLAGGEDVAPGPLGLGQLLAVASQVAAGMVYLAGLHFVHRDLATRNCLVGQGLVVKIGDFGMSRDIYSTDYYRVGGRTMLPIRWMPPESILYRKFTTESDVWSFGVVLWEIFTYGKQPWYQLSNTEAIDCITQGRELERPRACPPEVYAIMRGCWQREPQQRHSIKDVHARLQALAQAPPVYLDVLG
- assayInfo: Trk enzyme assay ([33P] incorporation into poly-EAY)
- Type: biochemical
- measurementSetup: mutant TrkA V573M enzyme; 22° C., 60 minutes
Provide the recorded IC50 for the entries that follow.
Report only the number, with the unit nM understood.

Sure, the documented IC50 for CC(=O)N1CCOc2ccc(F)cc2[C@H]2CCCN2c2ccn3ncc(c3n2)C1 [Compound 21] is 29.1

For reference, reported IC50 for C[C@H]1CNC(=O)c2cnn3ccc(nc23)N2CCC[C@@H]2c2cc(F)cn(c2=O)C1 [Compound 24] stands at 38.3

Briefly, IC50 measured for O=C(NC1CC1)c1cnn2ccc(N3CCC[C@@H]3c3cncc(F)c3)nc12 [Compound 13] : 20.9

Per the records, this molecule ( O=C(Nc1cnn2ccc(N3CCC[C@@H]3c3cc(F)ccc3F)nc12)N1CC(O)C1 [Compound 5] ) has IC50 equal to 152

====

For each record, write down the corresponding IC50.
- targetUnderTest: TrkC G623R (Homo sapiens, UniProt Q16288, G623R/S70N)
- Sequence (Q16288 32-839 S70N/G623R): as the sequence (Q16288 32-839 S70N) above, with G592R counted along it
- assayInfo: Trk enzyme assay ([33P] incorporation into poly-EAY)
- Format: biochemical
- measurementSetup: mutant TrkC G623R enzyme; 22° C., 60 minutes
Write the number in nM without appending the unit.

# IC50 of CN(CCO)C(=O)Nc1cnc2ccc(N3CCC[C@@H]3c3cc(F)ccc3F)nn12 = 24.1

# molecule CC1(NC(=O)c2cnn3ccc(N4CCC[C@@H]4c4cncc(F)c4)nc23)CC1 ; its IC50 = 1.7

IC50 reading for O=C(Nc1cnn2ccc(N3CCC[C@@H]3c3cccc(F)c3)nc12)N1CC(O)C1 : 446

# IC50 (molecule: CN(C)C(=O)Nc1cnn2ccc(N3CCC[C@@H]3c3cc(F)ccc3F)nc12 ) is 54.9

Measured IC50 of O=C1NC[C@H](O)COc2ccc(F)cc2[C@H]2CC(F)(F)CN2c2ccn3ncc1c3n2 : 2.6

Looking up NC(=O)c1cnn2ccc(N3CCC[C@@H]3c3cc(F)ccc3F)nc12 , I found its IC50 recorded as 1.6

// field: IC50; key: O=C1NCCCOc2cccc(n2)[C@H]2CCCN2c2ccn3ncc1c3n2 ; value = 3.1

Reported IC50 for O=C(NC1CC1)c1cnn2ccc(N3CCC[C@@H]3c3cncc(F)c3)nc12 was 3.1

Data point: CN(C)C(=O)Nc1cnc2ccc(N3CCC[C@@H]3c3cc(F)ccc3F)nn12 ; IC50 = 23.1

According to the records, this molecule CONC(=O)c1cnn2ccc(N3CCC[C@@H]3c3cc(F)cnc3OC)nc12 displays IC50 of 2.7

The reported IC50 of the molecule CC(=O)N1CCOc2ccc(F)cc2[C@H]2CCCN2c2ccn3ncc(c3n2)C1 was 7.8

Record O=C1NCCCOc2ccc(F)cc2[C@H]2CCCN2c2ccn3ncc1c3n2 . Reported IC50: 1.8

Entry C[C@H]1CNC(=O)c2cnn3ccc(nc23)N2CCC[C@@H]2c2cc(F)cn(c2=O)C1 , IC50 reported as 4.5

Query O=C(Nc1cnn2ccc(N3CCC[C@@H]3c3cc(F)ccc3Cl)nc12)N1CC(O)C1 yields IC50 of 92.6

IC50 reading for O=C1NCCCOc2ncc(F)cc2[C@H]2CCCN2c2ccn3ncc1c3n2 : 1.3

According to the records, this molecule CC1(O)CN(C(=O)Nc2cnc3ccc(N4CCC[C@@H]4c4cc(F)ccc4F)nn23)C1 displays IC50 of 22.7

For record O=C1NC[C@@H](O)COc2ncc(F)cc2[C@H]2CCCN2c2ccn3ncc1c3n2 the listed IC50 is 1.8
